# protocolDescription: Cellular Toxicity (caspase-3) Hek293 (AID 664);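 also: cells exposed to compound for 16 h at 37 °C before readout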
# protocolConditions: HEK293 caspase-3 activation, DMSO = 0%, 100 µM tamoxifen = 100%; at 92.2 µM (top of the series)
Records with an inconclusive call do not appear.
observable: caspase-3 activation (%)
Write it as a number; the unit % goes unstated.

Worked cases, answers included:
>>> recordedvalue("ClC(Cl)Cl")
0.0594
>>> recordedvalue("Oc1cccc(O)c1O")
1.35

Which caspase-3 activation is listed for `O=P(O)(O)O` ?
-0.448

# repeat for `CC[C@H]1OC(=O)[C@H](C)[C@@H](O[C@H]2C[C@@](C)(OC)[C@@H](O)[C@H](C)O2)[C@H](C)[C@@H](O[C@@H]2O[C@H](C)C[C@H](N(C)C)[C@H]2O)[C@](C)(O)C[C@@H](C)CN(C)[C@H](C)[C@@H](O)[C@]1(C)O`
0.727

# repeat for `O.O.O.O.O.O.O.O=S(=O)([O-])[O-].[Co+2]`
-1.13

# repeat for `NCCN`
0.975

* * *

# System: SC27B
# protocolDescription: qHTS profiling for inhibitors of Plasmodium falciparum proliferation (AID 504749); also: nearly all actives have a fitted effect of over 60% in size
# protocolConditions: P. falciparum in erythrocytes, SYBR Green DNA, 72 h; series mostly up to 28.7 µM
# Protocol: NIH National Institute of Allergy and Infectious Diseases [NIAID] NIH Chemical Genomics Center [NCGC] […] Because mature erythrocytes lack DNA, only Plasmodium-derived DNA is detected. NCGC Assay Protocol Summary: The SYBR Green viability assay was adapted from a method described previously (Plouffe et al., 2008). […] The following morning, fluorescence intensity at 485(14) nm excitation and 535(25) nm emission wavelengths was measured on an EnVision (Perkin Elmer) plate reader. […]
Records with an inconclusive call do not appear. The source made the active and inactive calls. Calls follow the shape of the dose curve; as a rule, active = well fitted inhibition curve with a large enough effect; inconclusive = small, poorly fitted or top-dose-only effect; inactive = flat fitted curve, though single readings scatter.
Return exactly one item of 1 (yes) (active), 0 (no) (inactive)

Worked set:
>>> classname("CN1C(C(=O)Nc2ccccn2)C(=O)c2sc(Cl)cc2S1(=O)=O (stereo unspecified)")
"0 (no)"
>>> classname("Cc1cccc(Nc2ncccc2C(=O)O)c1C")
"0 (no)"
>>> classname("CCN(CC)CCOc1ccccc1OC")
"0 (no)"
>>> classname("CN1C(=O)C[C@@H](C(=O)N[C@@H](Cc2cnc[nH]2)C(=O)N2CCC[C@H]2C(N)=O)NC1=O")
"0 (no)"
>>> classname("CCCCCCCCCCCCCCCCCC[N+](C)(C)CCC[Si](OC)(OC)OC")
"0 (no)"

How was `O=C1c2ccccc2C(=O)c2c1ccc(O)c2O` classified in this test?
0 (no)

# repeat for `CCOC(=O)c1c[nH]c2cc(OCC(C)C)c(OCC(C)C)cc2c1=O`
1 (yes)

# repeat for O=c1n(CC2CO2)c(=O)n(CC2CO2)c(=O)n1CC1CO1 (stereo unspecified)
0 (no)

# repeat for `Nc1ncnc2c1ncn2CCOCP(=O)(O)O`
0 (no)

# repeat for `O[C@@H]([C@H](O)[C@H](O)CBr)[C@H](O)CBr`
0 (no)

# repeat for `O=c1[nH]c(=O)n([C@H]2C[C@H](O)[C@@H](CO)O2)cc1/C=C/Br`
0 (no)

* * *

# protocolDescription: qHTS assay for small molecule antagonists of the retinoid-related orphan receptor gamma (ROR-gamma) signaling pathway - cell viability counter screen (AID 720652);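 also: CHO reporter cells with doxycycline-induced ROR-gamma expression; compound exposure lasted 16 hr before ATP read; % is scaled to controls: 0 for no effect and ±100 for the full control effect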
# protocolConditions: RORgamma reporter cell line viability counter screen; series mostly up to 92.2 µM
Records with an inconclusive call do not appear. Active and inactive are the calls of the source. The call rests on the fitted dose curve; in most records, active means well fitted cell-killing curve with a large enough effect in the repeat runs; inconclusive means weak or mixed curves, or effect the other way; inactive means flat fitted curve, though single readings scatter.
observable: outcome

>>> recordedvalue("CC[C@H]1OC(=O)[C@H](C)[C@@H](O[C@H]2C[C@@](C)(OC)[C@@H](O)[C@H](C)O2)[C@H](C)[C@@H](O[C@@H]2O[C@H](C)C[C@H](N(C)C)[C@H]2O)[C@](C)(O)C[C@@H](C)CN(C)[C@H](C)[C@@H](O)[C@]1(C)O")
"inactive"
>>> recordedvalue("CC/C=C\\C/C=C\\C/C=C\\CCCCCCCC(=O)O")
"inactive"
>>> recordedvalue("OCc1ccccc1")
"inactive"
>>> recordedvalue("NCCN")
"inactive"
>>> recordedvalue("[O-][N+](=Nc1ccccc1)c1ccccc1")
"inactive"

Which outcome is listed for `Cc1ncc[nH]1` ?
inactive

# repeat for `CCOC(C)OCC`
inactive

# repeat for `Cc1ccc(S(=O)(=O)O)cc1C`
inactive

# repeat for `CCCCO`
inactive

# repeat for `c1ccc2ccccc2c1`
inactive

# repeat for `OCC(O)CO`
inactive
